STUDY_SYSTEM: T1, Recombinant human extracellular domain of IL13RA2-6His (27-343) (human, UniProt Q14627 27-343)
T1 construct: also called Human IL13RA2-6His; human IL13Rα2
T1 sequence: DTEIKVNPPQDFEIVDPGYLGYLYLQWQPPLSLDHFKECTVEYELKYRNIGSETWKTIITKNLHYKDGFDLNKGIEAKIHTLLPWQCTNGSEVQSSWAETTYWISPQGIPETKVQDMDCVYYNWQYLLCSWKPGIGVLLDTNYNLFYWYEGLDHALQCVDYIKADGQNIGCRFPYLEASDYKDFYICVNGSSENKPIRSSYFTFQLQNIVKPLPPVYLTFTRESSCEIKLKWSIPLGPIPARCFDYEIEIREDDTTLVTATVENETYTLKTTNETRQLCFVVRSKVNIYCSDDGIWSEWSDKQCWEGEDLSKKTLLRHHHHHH
PROCEDURE_SUMMARY: ELISA on coated IL13RA2-6His; antibody kept 8 days, column headed 'EC50 4° C.'
EC50 overview
Reply with just the number (in µg/mL).

Solved entries (count: 2):
Clone 47 VHAback / Clone 47 VKA1 (antibody, V domains shown, Expressed as IgG in Expi293 cells; also called VHAback/VKA1) VH: QVQLVQSGAEVKKPGASVKVSCKASGYTFSNYLMNWVRQAPGQGLEWIGRIDPYDGDIDYNQNFKDRATLTVDKSASTAYMELSSLRSEDTAVYYCARGYGTAYGVDYWGQGTSVTVSS VL: EIVLTQSPATLSLSPGERATLSCRASESVDNYGISFMNWFQQKPGQAPRLLIYAASRQGSGIPDRFSGSGSGTDFTLTISRLEPEDFAVYYCQQSKEVPWTFGGGTKLEIK    1.01
Clone 47 VHA / Clone 47 VKA2 (antibody, V domains shown, Expressed as IgG in Expi293 cells; also called VHA/VKA2) VH: QVQLVQSGAEVKKPGASVKVSCKASGYTFSNYLMNWVRQAPGQGLEWMGRIDPYDGDIDYNQNFKDRVTITRDTSASTAYMELSSLRSEDTAVYYCARGYGTAYGVDYWGQGTSVTVSS VL: EIVLTQSPATLSLSPGERATLSCRASESVDNYGISFMNWYQQKPGQAPRLLIYAASRQGSGIPDRFSGSGSGTDFTLTISRLEPEDFAVYFCQQSKEVPWTFGGGTKLEIK    0.148

// next entry
What value of measured EC50 is listed for Clone 47 VHA / Clone 47 VKA1 (antibody, V domains shown, Expressed as IgG in Expi293 cells; also called VHA/VKA1) VH: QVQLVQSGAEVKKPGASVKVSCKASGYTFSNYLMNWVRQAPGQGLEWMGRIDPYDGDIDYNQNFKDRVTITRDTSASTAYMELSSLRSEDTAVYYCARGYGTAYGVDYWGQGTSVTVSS VL: EIVLTQSPATLSLSPGERATLSCRASESVDNYGISFMNWFQQKPGQAPRLLIYAASRQGSGIPDRFSGSGSGTDFTLTISRLEPEDFAVYYCQQSKEVPWTFGGGTKLEIK ? 0.0581
